Hey, just so you know, these numbers are from patent US9284333B2.

// pIC50 lookup, one value per entry
system under test: Human TASK-1 channels (Homo sapiens (Human))
assay details: Determination of the activity on the TASK-1 channel in Xenopus oocytes (two-microelectrode voltage clamp)
study conditions: human TASK-1 expressed in Xenopus oocytes, room temperature; read-out: IC50 value for TASK-1 inhibition
Notebook: values listed as pIC50 are -log10 of the concentration (mol/L).

Query: What value of pIC50 has been reported for the following molecule? CC[C@@H](NC(=O)c1cc(C(=O)NCc2ccccc2C#N)n2c1COCC2)c1ccccc1 [16gy]
Response: 6.49

###

system under test: Human TASK-1 channels (Homo sapiens (Human), UniProt O14649)
Sequence (O14649 whole entry): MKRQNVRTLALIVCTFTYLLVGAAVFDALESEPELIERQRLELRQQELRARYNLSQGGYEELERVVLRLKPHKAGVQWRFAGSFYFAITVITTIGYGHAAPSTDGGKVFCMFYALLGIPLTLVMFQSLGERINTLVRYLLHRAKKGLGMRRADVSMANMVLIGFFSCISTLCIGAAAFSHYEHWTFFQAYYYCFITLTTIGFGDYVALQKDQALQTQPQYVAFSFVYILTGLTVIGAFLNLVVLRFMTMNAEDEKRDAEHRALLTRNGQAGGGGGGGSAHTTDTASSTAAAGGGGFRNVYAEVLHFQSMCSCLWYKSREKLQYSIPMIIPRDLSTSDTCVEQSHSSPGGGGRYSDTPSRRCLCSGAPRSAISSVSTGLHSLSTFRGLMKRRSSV
assay details: Determination of the activity on the TASK-1 channel in Xenopus oocytes (two-microelectrode voltage clamp)
Type: cell-based
study conditions: human TASK-1 expressed in Xenopus oocytes, room temperature; read-out: IC50 value for TASK-1 inhibition
// pIC50 lookup, one value per entry
Notebook: values listed as pIC50 are -log10 of the concentration (mol/L).

Record excerpt, results attached:
>  <compound>
CC[C@@H](NC(=O)c1cc(C(=O)N2CCC[C@@H]2C(F)(F)F)n2c1COCC2)c1ccc(C(F)(F)F)nc1 [16o]

>  <pIC50>
6.39

$$$$
>  <compound>
CC[C@@H](NC(=O)c1cc(C(=O)N[C@H](CC)c2ccccc2)n2c1CCCC2)c1ccccc1 [16ma]

>  <pIC50>
7.29

$$$$
>  <compound>
CC[C@@H](NC(=O)c1cc(C(=O)N[C@H](C)c2cnccn2)c2n1CCOC2)c1ccc(F)cc1Cl [16kn]

>  <pIC50>
6.89

$$$$
>  <compound>
CC[C@@H](NC(=O)c1cc(C(=O)N2CCC[C@@H]2C)n2c1COCC2)c1cnc(C(F)(F)F)c(F)c1 [16ck]

>  <pIC50>
6.08

$$$$

Query: What value of pIC50 has been reported for the following compound? CC[C@@H](NC(=O)c1cc(C(=O)N2CCC[C@@H]2C)n2c1COCC2)c1ccc(C(F)(F)F)nc1Cl [16cc]
Response: 7.19

Query: Request: CC[C@@H](NC(=O)c1cc(C(=O)N2CCC[C@@H]2C)n2c1COCC2)c1cccc(C(F)(F)F)n1 [16ap]
Response: 7.12

Query: Request: CC[C@@H](NC(=O)c1cc(C(=O)NCC2CC2)n2c1COCC2)c1ccccc1Cl [16ld]
Response: 7.10
